FYI, the data here is from patent US20110104716A1.

Test system: hippocampal slices
Protocol notes: Hippocampal slice cultures and induction of LTP (immunohistochemistry of LTP markers); note: key: ±: no change in the activation status; ++++: a qualitative maximal activation; ++: a half-maximum activation; −: a reduction of activation
Type: cell-based, Wistar rats
Condition summary: relative activation vs vehicle treated sister cultures; 15 min treatment after 48 h in culture
Excerpt: Seven-day-old Wistar rats were decapitated using a guillotine. […] Markers of enhanced synaptic activity, normally associated with LTP, representing an in vitro (or ex vivo) model of learning and memory, were quantified (see Table 1, below). […]

Compound	Test system	pMAPK
NCC(=O)O	hippocampal slices	++
C=CC(C)(O)CCC=C(C)C (stereo not shown)	hippocampal slices	±
Cc1ccc(C(C)C)cc1	hippocampal slices	++++
Cc1ccc(C(C)C)cc1O	hippocampal slices	−
